biological target: Human TLR7 (Homo sapiens); construct: expressed in transfected cells; host or cells: HEK293; assay: Human TLR7 EC50 in HEK293 (Table A); assay type: cell-based
Sequence (Q9NYK1 27-1049): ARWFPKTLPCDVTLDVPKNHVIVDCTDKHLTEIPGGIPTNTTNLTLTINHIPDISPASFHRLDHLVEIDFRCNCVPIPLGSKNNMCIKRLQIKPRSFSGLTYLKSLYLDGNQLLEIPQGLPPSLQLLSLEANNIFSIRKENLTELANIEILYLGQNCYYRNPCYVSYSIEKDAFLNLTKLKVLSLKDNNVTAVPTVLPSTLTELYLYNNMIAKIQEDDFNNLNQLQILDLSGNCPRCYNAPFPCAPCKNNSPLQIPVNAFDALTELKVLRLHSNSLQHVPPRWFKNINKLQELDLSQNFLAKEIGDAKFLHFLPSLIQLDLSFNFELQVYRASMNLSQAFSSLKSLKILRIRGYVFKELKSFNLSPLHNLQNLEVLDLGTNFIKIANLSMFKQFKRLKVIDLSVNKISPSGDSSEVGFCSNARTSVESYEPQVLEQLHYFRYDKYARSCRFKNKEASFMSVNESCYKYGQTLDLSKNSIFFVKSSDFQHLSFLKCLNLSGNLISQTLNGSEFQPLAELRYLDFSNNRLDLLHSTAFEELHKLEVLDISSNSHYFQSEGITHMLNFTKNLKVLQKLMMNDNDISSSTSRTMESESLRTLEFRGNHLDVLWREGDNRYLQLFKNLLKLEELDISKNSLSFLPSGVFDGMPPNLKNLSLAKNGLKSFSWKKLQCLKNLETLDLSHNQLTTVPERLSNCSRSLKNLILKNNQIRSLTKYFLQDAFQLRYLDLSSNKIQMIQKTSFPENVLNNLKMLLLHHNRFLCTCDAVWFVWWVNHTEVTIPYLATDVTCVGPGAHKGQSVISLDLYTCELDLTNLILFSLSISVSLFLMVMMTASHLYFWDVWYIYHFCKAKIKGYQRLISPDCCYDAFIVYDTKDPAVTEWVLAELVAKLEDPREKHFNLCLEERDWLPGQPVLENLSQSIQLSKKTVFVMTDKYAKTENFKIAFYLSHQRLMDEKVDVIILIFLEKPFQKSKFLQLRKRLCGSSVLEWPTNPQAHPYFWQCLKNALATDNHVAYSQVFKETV
Observable: EC50 (nM)
Respond with the bare value in nM.

EC50 measured on COc1ccc(CCc2cnc3c(N)nc4cc(C(O)(P(=O)(O)O)P(=O)(O)O)ccc4c3c2)c(C)c1 [Compound 19A] = 23700

----------
test: Solubility of Compound 6A; assay type: physicochemical; details: water; as base form; read-out: aqueous solubility
Observable: solubility

The molecule identified as Cc1ccc2c(c1)nc(N)c1ncc(CCc3ccc(OCCOCCOCCC(F)(F)P(=O)(O)O)cc3C)cc12 registered its solubility at < 400 µg/mL
